System: calvaria
Assay: Cytotoxicity test (MTT), calvaria
Assay type: cell-based
Conditions: 10^−6M, 72 hrs, in comparison with the control group
Hi there, I'd appreciate the recorded survival rates of the cells for every entry that follows.
Please answer in the form of a number followed by its unit of measurement.

Fill blank: measured survival rates of the cells of the molecule Cc1nc(-c2ccc(OCCCCCOc3ccc(C(=N)NO)cc3)cc2)c(CCN2CCOCC2)s1 [Example 18] is ____.
97.3%

Would you mind doing CCc1nc(-c2ccc(OCCCCCOc3ccc(C(=N)NO)cc3)cc2)c(CCN2CCSCC2)s1 [Example 43] as well?
91.9%

// query: CNc1nc(-c2ccc(OCCCCCOc3ccc(C(=N)N)cc3)cc2)c(CCN2CCOCC2)s1 [Example 52]
100.1%

Next: N=C(NO)c1ccc(OCCCCCOc2ccc(-c3nc(C4CCCCC4)sc3CCNCCN3CCOCC3)cc2)cc1 [Example 35]
81.6%

And then N=C(NO)c1ccc(OCCCCCOc2ccc(-c3nc(N(CCN4CCOCC4)Cc4ccccc4)sc3CCN3CCOCC3)cc2)cc1 [Example 56] , what is it?
84.0%

Next record, please: CCCN(CCC)CCc1sc(C2CCCCC2)nc1-c1ccc(OCCCCCOc2ccc(C(=N)NO)cc2)cc1 [Example 38]
94.9%

Check CNc1nc(-c2ccc(OCCCCCOc3ccc(C(=N)NO)cc3)cc2)c(CCNCCCn2ccnc2)s1 [Example 51] too.
91.7%

What about N=C(NO)c1ccc(OCCCCCOc2ccc(-c3nc(C4CCCCC4)sc3CCN3CCSCC3)cc2)cc1 [Example 36] ?
89.1%

And the next one, COCCN(CCOC)c1nc(-c2ccc(OCCCCCOc3ccc(C(=N)NO)cc3)cc2)c(CCN2CCOCC2)s1 [Example 58] ?
76.8%

And N=C(NO)c1ccc(OCCCCCOc2ccc(-c3nc(N)sc3CCNCCN3CCOCC3)cc2)cc1 [Example 40] ?
99.7%

And what about the molecule N=C(N)c1ccc(OCCCCCOc2ccc(-c3nc(N4CCOCC4)sc3CCN3CCOCC3)cc2)cc1 [Example 64] ?
99.4%

// next record N=C(N)c1ccc(OCCCCCOc2ccc(-c3nc(C4CCCCC4)sc3CCN3CCOCC3)cc2)cc1 [Example 45]
90.5%

Also CC(C)c1nc(-c2ccc(OCCCCCOc3ccc(C(=N)NO)cc3)cc2)c(CCN(C(=O)c2ccncc2)C2CC2)s1 [Example 67] , if possible.
95.3%

And then N=C(NO)c1ccc(OCCCCCOc2ccc(-c3nc(N4CCOCC4)sc3CCNCCN3CCOCC3)cc2)cc1 [Example 62] , what is it?
92.7%

Now this one: N=C(NO)c1ccc(OCCCCCOc2ccc(-c3nc(CN4CCCCC4)sc3CCN3CCOCC3)cc2)cc1 [Example 63]
86.9%

Further, for CCc1nc(-c2ccc(OCCCCCOc3ccc(C(=N)NO)cc3)cc2)c(CCN2CCOCC2)s1 [Example 42] ?
73.8%

Also, N=C(NO)c1ccc(OCCCCCOc2ccc(-c3nc(C4CCCCC4)sc3CCN(C(=O)c3cccnc3)C3CC3)cc2)cc1 [Example 68] please.
91.4%

====

Test system: calvaria
Assay: Cytotoxicity test (MTT), calvaria
Type: cell-based
Conditions: 10^−6M, 72 hrs, in comparison with the control group
What survival rates of the cells was measured for each of the following?
// units = %; emit number, no label

Query (compound): CCN(CC)c1nc(-c2ccc(OCCCCCOc3ccc(C(=N)NO)cc3)cc2)c(CCN2CCOCC2)s1 [Example 57] ; field requested: survival rates of the cells
87.0

Please give the result for CNc1nc(-c2ccc(OCCCCCOc3ccc(C(=N)NO)cc3)cc2)c(CCNCCN2CCOCC2)s1 [Example 50] too.
92.8

Then Cc1nc(-c2ccc(OCCCCCOc3ccc(C(=N)N)cc3)cc2)c(CCN2CCOCC2)s1 [Example 46] ?
99.9

Check CN(C)CCc1sc(C2CCCCC2)nc1-c1ccc(OCCCCCOc2ccc(C(=N)NO)cc2)cc1 [Example 37] too.
84.7

N=C(NO)c1ccc(OCCCCCOc2ccc(-c3nc(C4CCCCC4)sc3CCNC3CC3)cc2)cc1 [Example 39] , same question.
93.1

What about Cc1nc(-c2ccc(OCCCCOc3ccc(C(=N)NO)cc3)cc2)c(CCN2CCOCC2)s1 [Example 44] ?
90.6

Input Cc1nc(-c2ccc(OCCCCCOc3ccc(C(=N)NO)cc3)cc2)c(CCN(CC(C)C)C(=O)c2cccnc2)s1 [Example 66]
99.0

Please answer likewise for N=C(NO)c1ccc(OCCCCCOc2ccc(-c3nc(-c4ccccc4)sc3CCN3CCOCC3)cc2)cc1 [Example 41]
78.6
